# System Under Test: P236L viral reverse transcriptase (Human immunodeficiency virus type 1 group M subtype B, UniProt P04585, P823L)
# Construct: P236L viral reverse transcriptase is obtained by PNAS 90: 4713-4717 (1993); made in house
# Method Description: inhibition of viral reverse transcriptase (P236L), cell free assay
# Assay type: biochemical
# Assay Conditions: IC50 (Table I, P236L), 30 minutes at 37° C.
pIC50: −log10 of the molar value.
Tick MET if pIC50 is 7 or greater. Tick NOT MET if pIC50 is less than 7.

{"Compound": "CC(Sc1nc(N)cc(Cl)n1)c1cc(C2CCCC2)ccn1 (stereo not shown) [Example 253]", "Discrete Label": "NOT MET"}
{"Compound": "Cc1coc2cnc([C@@H](C)Sc3nc(N)cc(Cl)n3)cc12 [Example 289]", "Discrete Label": "MET"}
{"Compound": "CCNC(=O)/C=C/CSc1nc(N)cc(Cl)n1 [Example 196]", "Discrete Label": "NOT MET"}
{"Compound": "C=Cc1cc(C(C)Sc2nc(N)cc(Cl)n2)nc(Cl)c1OC (stereo not shown) [Example 244]", "Discrete Label": "NOT MET"}
{"Compound": "CC(Sc1nc(N)cc(Cl)n1)c1cc2c(cn1)OCC2(C)C (stereo not shown) [Example 248]", "Discrete Label": "MET"}
{"Compound": "Nc1cc(Cl)nc(SCc2cccc3cccnc23)n1 [Example 180]", "Discrete Label": "MET"}
{"Compound": "CCc1coc2cnc(C(C)Sc3nc(N)cc(Cl)n3)cc12 (stereo not shown) [Example 249]", "Discrete Label": "MET"}
{"Compound": "CC(Sc1nc(N)cc(Cl)n1)c1ccccn1 (stereo not shown) [Example 211]", "Discrete Label": "MET"}
{"Compound": "CC(Sc1nc(N)cc(C(F)(F)F)n1)c1cc2c(cn1)CCCC2 (stereo not shown) [Example 234]", "Discrete Label": "NOT MET"}
{"Compound": "Nc1cc(C(F)(F)F)nc(SCc2ccc3ccccc3c2)n1 [Example 270]", "Discrete Label": "NOT MET"}
{"Compound": "CC(Sc1nc(N)cc(Cl)n1)c1cc(N(C)C)ccn1 (stereo not shown) [Example 259]", "Discrete Label": "MET"}
{"Compound": "CC(Sc1nc(N)cc(Cl)n1)c1cc2ccccc2cn1 (stereo not shown) [Example 230]", "Discrete Label": "MET"}
{"Compound": "C=C(C)c1ccnc(C(C)Sc2nc(N)cc(Cl)n2)c1 (stereo not shown) [Example 221]", "Discrete Label": "MET"}
{"Compound": "CC(Sc1nc(N)cc(Cl)n1)c1cc(C2CCCCC2)ccn1 (stereo not shown) [Example 257]", "Discrete Label": "NOT MET"}
{"Compound": "Clc1nc(SCc2ccc3ccccc3c2)nc2c1CCN2 [Example 281]", "Discrete Label": "NOT MET"}
